target.system: Interleukin-1 receptor-associated kinase 4 (Homo sapiens)
Sequence (Q9NWZ3 whole entry): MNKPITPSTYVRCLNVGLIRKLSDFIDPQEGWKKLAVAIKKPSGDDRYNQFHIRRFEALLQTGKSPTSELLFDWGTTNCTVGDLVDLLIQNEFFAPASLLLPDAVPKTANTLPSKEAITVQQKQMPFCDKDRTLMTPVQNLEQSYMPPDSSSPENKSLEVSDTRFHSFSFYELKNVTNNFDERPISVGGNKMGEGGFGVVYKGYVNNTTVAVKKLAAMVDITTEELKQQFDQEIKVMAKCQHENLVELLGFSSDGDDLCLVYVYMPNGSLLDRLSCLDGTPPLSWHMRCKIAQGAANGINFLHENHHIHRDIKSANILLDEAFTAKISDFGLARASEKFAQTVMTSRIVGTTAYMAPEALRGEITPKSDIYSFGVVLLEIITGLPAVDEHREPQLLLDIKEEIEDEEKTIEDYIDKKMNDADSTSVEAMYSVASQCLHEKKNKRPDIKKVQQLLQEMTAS
assay.info: Inhibition of IRAK4 in human PBMC
pIC50: −log10 of the molar value.
metric: pIC50

a = Cn1cc(NC(=O)c2ccc3ccc(N[C@@H]4CCCC[C@@H]4N)nn23)c(Cl)n1
b = Cn1cc(NC(=O)c2ccc3cnc(N[C@@H]4CCCC[C@@H]4N)nn23)c(C#N)n1
query: I'd appreciate it if you could identify which of a and b has the greater pIC50. Please respond with the label that marks your chosen entry.
result: a

A = Cn1cc(NC(=O)c2cnn3ccc(N[C@@H]4CCCNC4)nc23)c(C(F)(F)F)n1
B = Cn1cc(NC(=O)c2csc3ncc(N[C@@H]4CCCNC4)nc23)c(C(F)F)n1
C = Cn1cc(NC(=O)c2ccc3ccc(N[C@@H]4CCCC[C@@H]4N)nn23)c(C(F)F)n1
D = Cn1cc(NC(=O)c2csc3ncc(N[C@@H]4CCCNC4)nc23)c(C(F)(F)F)n1
query: Sort entries by pIC50 from minimum to maximum value. In plain terms: list the labels in the order you were asked to.
result: C, A, D, B
(C: 7.60, A: 7.92, D: 8.15, B: 8.52)

A = Cn1cc(NC(=O)c2ccc3ccc(N[C@@H]4CCCC[C@@H]4N)nn23)c(C#N)n1
B = Cn1cc(NC(=O)c2csc3ncc(N[C@@H]4CCCC[C@@H]4N)nc23)c(C(F)F)n1
query: // pick min by pIC50: A , B Please respond with the label that marks your chosen entry.
result: A

1 = Cn1cc(NC(=O)c2ccc3cnc(N[C@@H]4CCCCNC4)nn23)c(C(F)F)n1
2 = Cn1cc(NC(=O)c2ccc3cnc(N[C@@H]4CCCC[C@@H]4N)nn23)c(Cl)n1
query: // pick min by pIC50: 1 , 2 Please respond with the label that marks your chosen entry.
result: 2
